Assay: gradient 5% acetonitrile 3 min, to 50% in 2 min, to 85% in 15 min, held 3 min, 100 µL/min
Conditions: column: Zorbax Extend-C18 2.1 x 50 mm; eluents: water / acetonitrile, 0.1% formic acid
Value Kind: RP-LC retention time (s)
Quick reminder: number only, in s, skip the unit.

# count of solved cases: 8
> print(dat)
                                   molecule  test.value
1  O=C1CC(c2noc(-c3cc(F)ccc3F)n2)CN1c1ccc(F)cc1 (stereo not given)         944
2         CCCn1nc(CNC(=O)c2cnccn2)c2ccccc21         765
3  C=CCN(Cc1nc(-c2ccc(C)cc2)no1)C(=O)Nc1ccccc1C         650
4  COc1ccc(-c2nc(Cn3cnc4nc5c(cc4c3=O)CC(C)CC5)c(C)o2)cc1OC (stereo not given)         870
5  O=C(CNC(=O)c1c[nH]c2ccccc12)Nc1cc(Cl)ccc1O         695
6  Cc1noc(C)c1-c1ccc(S(=O)(=O)N2CCN(C)CC2)cc1         610
7               CCc1ccccc1NC(=O)c1sc(C)nc1C         778
8  CC(=O)Oc1cc2c(s1)CCN(C(C(=O)C1CC1)c1ccccc1F)C2 (stereo not given)         739

## Task For the molecule `CCN1C(=O)COc2ccc(-c3csc(NC(=O)CCc4ccc(C)cc4)n3)cc21` , what RP-LC retention time is on record?
## Result 1070

## Task For the molecule COc1cc(C(=O)N2CCCC2c2nc(-c3ccccc3Cl)no2)cc(OC)c1OC (stereo not given) , what RP-LC retention time is on record?
## Result 906

## Task For the molecule `O=C(Cc1ccc(Cl)cc1)Nc1cnc(-c2ccccc2)nc1` , what RP-LC retention time is on record?
## Result 1000

## Task For the molecule `CCOc1ccccc1CNC(=O)c1cnc(OC)nc1` , what RP-LC retention time is on record?
## Result 702

## Task For the molecule `CCN1CCN(c2nc(F)c(F)c(S(=O)(=O)CCNc3cccc(C(F)(F)F)c3)c2F)CC1` , what RP-LC retention time is on record?
## Result 731

## Task For the molecule `CCCn1cnnc1C1CCN(Cc2cccc(OCC)c2)CC1` , what RP-LC retention time is on record?
## Result 601

## Task For the molecule CCCNC(=O)C1CCCN(c2ccc(SCC(=O)Nc3ccc4c(c3)OCCO4)nn2)C1 (stereo not given) , what RP-LC retention time is on record?
## Result 657

## Task For the molecule `COc1ccc(-c2noc(C3CCN(CC(=O)Nc4ccc5c(c4)OCO5)CC3)n2)cc1` , what RP-LC retention time is on record?
## Result 703

## Task For the molecule `Cc1noc(C)c1-c1ccc(S(=O)(=O)Nc2ccc(F)cc2)cc1` , what RP-LC retention time is on record?
## Result 904

## Task For the molecule CCCC1c2nccn2CCCN1C(=O)c1ccoc1C (stereo not given) , what RP-LC retention time is on record?
## Result 592

These entries and their values trace back to the METLIN SMRT retention time set (Domingo-Almenara et al. 2019).
